# TARGET DESC: Heat shock protein HSP 90-alpha (Homo sapiens)
# PROTOCOL: Inhibition of FITC-labeled geldanamycin binding to recombinant HSP90alpha (unknown origin) after 1 hr by fluorescence polarization assay
pIC50: −log10 of the molar value.
Measured pIC50, listed per entry for reference.

[
  {
    "MOL SMILES": "CC(C)c1cc(-c2onc(C(=O)NCC(=O)Nc3cccc(Nc4ncc(Cl)c(Nc5ccccc5S(=O)(=O)C(C)C)n4)c3)c2-c2ccc(CN3CCOCC3)cc2)c(O)cc1O",
    "pIC50": "< 6.00"
  },
  {
    "MOL SMILES": "COc1ccc(Nc2ncc(Cl)c(Nc3ccccc3S(=O)(=O)C(C)C)n2)cc1NC(=O)CNC(=O)c1noc(-c2cc(C(C)C)c(O)cc2O)c1-c1ccc(CN2CCOCC2)cc1",
    "pIC50": "< 6.00"
  },
  {
    "MOL SMILES": "COc1ccc(NC(=O)CNC(=O)c2noc(-c3cc(C(C)C)c(O)cc3O)c2-c2ccc(CN3CCOCC3)cc2)cc1Nc1ncc(Cl)c(Nc2ccccc2S(=O)(=O)C(C)C)n1",
    "pIC50": "< 6.00"
  },
  {
    "MOL SMILES": "CCNC(=O)c1noc(-c2cc(C(C)C)c(O)cc2O)c1-c1ccc(C(=O)NCC(=O)Nc2ccc(OC)c(Nc3ncc(Cl)c(Nc4ccccc4S(=O)(=O)C(C)C)n3)c2)cc1",
    "pIC50": "< 6.00"
  }
]

Origin of measurements: ChEMBL document CHEMBL4152232
